Quick reference: TGI of the listed items.
system: SNB-75 CNS; test: NCI tumour cell line growth inhibition, 48 h

Query: Request the reported TGI associated with S=c1[nH]n2c(COc3cccc(OCc4nnc5sc(=S)[nH]n45)c3)nnc2s1
Reply: > 100 µM

Query: Recorded TGI of CN(C)/C=N/n1c2ccccc2c2ccccc21 , please.
Reply: > 100 µM

* * *

tested on: RPMI-8226 leukemia; assay: NCI tumour cell line growth inhibition, 48 h
Outcome Measure: TGI

[
  {
    "Molecule": "Cn1c(N)c2c3c(sc2nc1=O)CCCC3",
    "TGI": "> 75 µM"
  },
  {
    "Molecule": "CCN(CC)c1nc(-c2ccc(Cl)cc2Cl)nc2ccccc12",
    "TGI": "> 100 µM"
  },
  {
    "Molecule": "Cc1ccc(NC(=S)NNC(=O)c2cc(-c3ccccc3)nc3ccccc23)cc1",
    "TGI": "39.2 µM"
  }
]

Query: // query TGI value for entry O=c1[nH]cc(COCCO)c(=O)[nH]1
Reply: > 100 µM

Query: Any idea what TGI was measured for CCC1C2C=CC(CC2)N1S(=O)(=O)c1ccc(C)cc1 (configuration not stated) ?
Reply: 42.3 µM

Query: Could you tell me which TGI is on file for CCN(CC)C(=S)SS(=O)(=O)c1ccc(F)cc1 ?
Reply: 55.5 µM

Query: Tell me the measured TGI of CSc1ncnc2c1cnn2CCCCO , please.
Reply: > 100 µM

Query: Entry under review: COc1cc(C2SCC(=O)N2c2ccc(Cl)c(Cl)c2)cc(OC)c1OC (configuration not stated) . Reported TGI?
Reply: > 78.6 µM

Value source: PubChem BioAssay (NCI)
